- assayComment: T. gondii ME49Luc in HeLa cells, luciferase assay, 72 h, no IFN-y (AID 1259421)
- testParameters: concentration not given here
About 610 (9.5%) of roughly 6,400 compounds were called active. Rule as the data show it: active = activity change below about -70%; inconclusive = no clear call, values can overlap the other calls; inactive = above that. Only a selection was taken, and actives are over-represented in it overall.
Valid outcomes are listed here; reply with one: active, inactive

Here are 5 compounds together with their reported answers.
Record request — test call for C=C1CC[C@H](O)C/C1=C/C=C1\CCC[C@]2(C)[C@@H]([C@H](C)CCCC(C)C)CC[C@@H]12
active

For O=C(/C=C/c1ccc(CN(CCO)CCc2c[nH]c3ccccc23)cc1)NO then?
active

For COC(=O)C1=C(C)NC(C)=C(C(=O)O[C@H]2CCN(Cc3ccccc3)C2)[C@H]1c1cccc([N+](=O)[O-])c1 then?
inactive

For CCN(CC)Cc1ccc2cc(COC(=O)Nc3ccc(C(=O)NO)cc3)ccc2c1 then?
active

For CCCCc1oc2ccc(NS(C)(=O)=O)cc2c1C(=O)c1ccc(OCCCN(CCCC)CCCC)cc1 then?
active

Next:
Record request — test call for C=CC(=O)Nc1cc2c(Nc3ccc(F)c(Cl)c3)ncnc2cc1OCCCN1CCOCC1
inactive

For O=c1[nH]c(-c2ccc(C(F)(F)F)cc2)nc2c1CSCC2 then?
inactive

For CCC(C)(C)C(=O)O then?
inactive

====

- assayComment: T. gondii ME49Luc in HeLa cells, luciferase assay, 72 h, no IFN-y (AID 1259421)
- testParameters: active compounds read low, concentration not given here
Screen size: about 6,400 compounds; about 610 (9.5%) were called active. For the sample, actives were picked, then their nearest neighbours and some compounds at random.
parameter: activity change, negative = inhibition (%)
Give bare numbers, in %.

See these solved cases before continuing.
Field request: activity change, negative = inhibition | item: O=C(NC1CCN(CCc2c[nH]c3ccccc23)CC1)c1ccccc1
10.9

For O=C(N[C@H]1CCN(C(=O)c2cc(C(F)(F)F)cc(C(F)(F)F)c2)[C@H](Cc2ccc(Cl)cc2)C1)c1ccnc2ccccc12 then?
25.3

Field: next compound
Field request: activity change, negative = inhibition | item: CN[C@@H]1C(OC2[C@H](O[C@H]3[C@H](O)[C@@H](O)[C@H](N=C(N)N)[C@@H](O)[C@@H]3N=C(N)N)OC(C)[C@]2(O)CO)OC(CO)C(O)C1O (stereo partly drawn)
3.82

====

- assayComment: T. gondii ME49Luc in HeLa cells, luciferase assay, 72 h, no IFN-y (AID 1259421)
- testParameters: active compounds read low, concentration not given here
Out of some 6,400 compounds screened, about 610 (9.5%) were called active. This excerpt belongs to a sample that is enriched for actives.
parameter: activity change, negative = inhibition (%)
Numbers only, in %.

See these solved cases before continuing.
Field request: activity change, negative = inhibition | item: CCCCCCCCNC(=O)C(Cc1ccc(OCc2ccncc2)cc1)NC(=O)C1CCC(CN)CC1 (stereo unspecified)
20.5

For COc1cc(/C=C/C(=O)O[C@H]2CC[C@]34CC35CC[C@]3(C)[C@@H](C(C)CCC=C(C)C)CC[C@@]3(C)C5CCC4C2(C)C)ccc1O (stereo partly specified) then?
9.65

For O=[N+]([O-])c1nccn1CC(O)CN1CCCCC1 (stereo unspecified) then?
-0.914

For CC(C)(C)Sc1c(CC(C)(C)C(=O)O)n(Cc2ccc(Cl)cc2)c2ccc(OCc3ccc4ccccc4n3)cc12 then?
12.6

For CC(O)COC[C@H]1O[C@@H]2O[C@H]3[C@H](O)[C@@H](O)[C@@H](O[C@H]4[C@H](O)[C@@H](O)[C@@H](O[C@H]5[C@H](O)[C@@H](O)[C@@H](O[C@H]6[C@H](O)[C@@H](O)[C@@H](O[C@H]7[C@H](O)[C@@H](O)[C@@H](O[C@H]8[C@H](O)[C@@H](O)[C@@H](O[C@H]1[C@H](O)[C@H]2O)O[C@@H]8COCC(C)O)O[C@@H]7COCC(C)O)O[C@@H]6COCC(C)O)O[C@@H]5COCC(C)O)O[C@@H]4COCC(C)O)O[C@@H]3COCC(C)O (stereo partly specified) then?
10.2

For COc1cc2c(Oc3ccc(NC(=O)C4(C(=O)Nc5ccc(F)cc5)CC4)cc3F)ccnc2cc1OCCCN1CCOCC1 then?
-67.4

Quick batch: activity change, negative = inhibition for everything below.
1. N[C@@H](C(=O)O)C1=CCC=CC1
2. COc1cc(/C=C/C(=O)O)cc(OC)c1O
3. C=CCN1CC(C(=O)N(CCCN(C)C)C(=O)NCC)CC2c3cccc4[nH]cc(c34)CC21 (stereo unspecified)

[-2.48, -2.18, 5.12]

Cited source: PubChem BioAssay AID1259421
